- target_under_test: Ataxin-2 (Homo sapiens) (UniProt Q99700)
- Sequence (Q99700 whole entry): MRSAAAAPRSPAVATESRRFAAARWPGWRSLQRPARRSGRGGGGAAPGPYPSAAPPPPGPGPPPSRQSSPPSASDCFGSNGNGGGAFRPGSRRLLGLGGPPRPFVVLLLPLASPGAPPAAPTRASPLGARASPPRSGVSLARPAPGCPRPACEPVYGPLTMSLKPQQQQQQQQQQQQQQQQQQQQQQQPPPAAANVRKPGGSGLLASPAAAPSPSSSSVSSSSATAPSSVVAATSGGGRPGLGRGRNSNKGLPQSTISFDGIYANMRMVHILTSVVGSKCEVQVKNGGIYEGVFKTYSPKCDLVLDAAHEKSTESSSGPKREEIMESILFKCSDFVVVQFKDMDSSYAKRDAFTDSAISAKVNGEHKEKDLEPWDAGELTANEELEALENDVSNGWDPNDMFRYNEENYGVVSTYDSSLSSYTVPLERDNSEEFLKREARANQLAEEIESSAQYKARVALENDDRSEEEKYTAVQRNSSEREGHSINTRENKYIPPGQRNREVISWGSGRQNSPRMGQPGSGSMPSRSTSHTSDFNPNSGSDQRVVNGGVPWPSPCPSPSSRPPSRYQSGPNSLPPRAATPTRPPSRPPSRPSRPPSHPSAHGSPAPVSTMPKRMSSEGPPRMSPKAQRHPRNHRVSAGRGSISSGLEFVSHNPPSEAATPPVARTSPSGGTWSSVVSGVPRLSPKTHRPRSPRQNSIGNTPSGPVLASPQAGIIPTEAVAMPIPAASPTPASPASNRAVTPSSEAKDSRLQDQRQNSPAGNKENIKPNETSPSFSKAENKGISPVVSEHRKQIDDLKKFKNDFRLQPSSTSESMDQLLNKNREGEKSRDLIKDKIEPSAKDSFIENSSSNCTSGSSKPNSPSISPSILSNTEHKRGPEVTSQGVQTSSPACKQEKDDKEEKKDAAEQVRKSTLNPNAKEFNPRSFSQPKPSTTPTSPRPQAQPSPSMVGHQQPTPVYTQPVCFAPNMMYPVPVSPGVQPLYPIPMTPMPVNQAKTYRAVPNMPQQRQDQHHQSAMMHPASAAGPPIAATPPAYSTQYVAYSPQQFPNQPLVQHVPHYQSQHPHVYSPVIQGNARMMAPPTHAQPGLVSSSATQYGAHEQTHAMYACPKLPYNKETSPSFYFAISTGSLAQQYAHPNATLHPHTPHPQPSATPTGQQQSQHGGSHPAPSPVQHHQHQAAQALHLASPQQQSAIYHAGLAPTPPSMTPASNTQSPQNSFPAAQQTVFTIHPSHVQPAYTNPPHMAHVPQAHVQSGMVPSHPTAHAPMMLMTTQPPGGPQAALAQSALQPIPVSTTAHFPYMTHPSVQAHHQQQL
- experiment_summary: qHTS for Inhibitors of ATXN expression.
- Type: functional
Screen size: about 400,000 compounds; about 2,100 (0.53%) were called active. About 14% were inconclusive and are not listed. How the calls were made is not given here. Shown is part of a subset that was picked to be rich in actives.
Outcome codes: 1 (active), -1 (inactive)

INSERT INTO measurements (compound, qualitative_label) VALUES
  ('CCC/C=C/c1ccc(CN2C(CC(C)C)C(=O)N(Cc3cn(CCC4OCCCO4)nn3)CCS2(=O)=O)cc1 (stereo not drawn)', 1),
  ('COCCNC(=O)c1cc2c(=O)n3cccc(C)c3nc2n(Cc2ccncc2)c1=N', -1),
  ('O=[N+]([O-])c1ccc(S(=O)(=O)NCCc2cn3ccccc3n2)cc1', -1),
  ('O=C(Nc1cc2c(=O)n(-c3ccc(Oc4ccccc4)cc3)ccc2oc1=O)c1ccccc1', -1),
  ('C=CCn1c2ccccc2c(=O)c2cc(C#CC[C@@H](C)O)ccc21', -1),
  ('COc1ccc(S(=O)(=O)N(C)C[C@@H]2OCCCC[C@@H](C)Oc3ccc(NC(=O)NC(C)C)cc3C(=O)N([C@H](C)CO)C[C@@H]2C)cc1', -1),
  ('N#CCCn1nc(-c2ccc(Br)cc2)cc1Nc1ccccc1NC(=O)C(F)(F)F', -1),
  ('C[C@H]1CCCCO[C@@H](CN(C)S(=O)(=O)c2ccc(Cl)cc2)[C@@H](C)CN([C@@H](C)CO)C(=O)c2cc(NS(=O)(=O)c3ccccc3)ccc2O1', 1);
